tested on: SK-MEL-5 melanoma; experiment: NCI tumour cell line growth inhibition, 48 h; in the data active = GI50 below about 0.43 µM; inactive = the rest
Outcome field: choose from true (active), false (inactive)

Consider the following illustrative entries.
>  <compound>
N#Cc1c2ccccc2c2nnc3cc(Cl)c(Cl)cc3n12

>  <label_class>
false

$$$$
>  <compound>
O=C1NC(=NCc2ccccn2)S/C1=C\c1ccc2ncccc2c1

>  <label_class>
false

$$$$
>  <compound>
Cn1c2ccccc2c2c3c(c4c5ccccc5n(CCCCCC#N)c4c21)C(=O)N(O)C3=O

>  <label_class>
true

$$$$
>  <compound>
COc1ccc(/C=C(/C(=O)N2CCNCC2)c2cc(OC)c(OC)c(OC)c2)cc1O

>  <label_class>
false

$$$$
>  <compound>
Cc1ccc(/C=C2\CCOC2=O)cc1

>  <label_class>
false

$$$$

Field: next compound
Q: // outcome(item) with item = Nc1nc(Cl)nc2c1ncn2C1O[C@H](CO)[C@@H](O)[C@@H]1F (stereo partly specified)
Ans: true
